target: SMARCA4 (Homo sapiens, UniProt P51532); assay: SMARCA4 degradation in SW1573 cells (Western blot); assay type: cell-based; design: endogenous in cells; host or cells: SW1573; conditions: 1 nM, 24 hours, read-out: Degradation rate of SMARCA4 in SW1573 cells (%)
Sequence (P51532 whole entry): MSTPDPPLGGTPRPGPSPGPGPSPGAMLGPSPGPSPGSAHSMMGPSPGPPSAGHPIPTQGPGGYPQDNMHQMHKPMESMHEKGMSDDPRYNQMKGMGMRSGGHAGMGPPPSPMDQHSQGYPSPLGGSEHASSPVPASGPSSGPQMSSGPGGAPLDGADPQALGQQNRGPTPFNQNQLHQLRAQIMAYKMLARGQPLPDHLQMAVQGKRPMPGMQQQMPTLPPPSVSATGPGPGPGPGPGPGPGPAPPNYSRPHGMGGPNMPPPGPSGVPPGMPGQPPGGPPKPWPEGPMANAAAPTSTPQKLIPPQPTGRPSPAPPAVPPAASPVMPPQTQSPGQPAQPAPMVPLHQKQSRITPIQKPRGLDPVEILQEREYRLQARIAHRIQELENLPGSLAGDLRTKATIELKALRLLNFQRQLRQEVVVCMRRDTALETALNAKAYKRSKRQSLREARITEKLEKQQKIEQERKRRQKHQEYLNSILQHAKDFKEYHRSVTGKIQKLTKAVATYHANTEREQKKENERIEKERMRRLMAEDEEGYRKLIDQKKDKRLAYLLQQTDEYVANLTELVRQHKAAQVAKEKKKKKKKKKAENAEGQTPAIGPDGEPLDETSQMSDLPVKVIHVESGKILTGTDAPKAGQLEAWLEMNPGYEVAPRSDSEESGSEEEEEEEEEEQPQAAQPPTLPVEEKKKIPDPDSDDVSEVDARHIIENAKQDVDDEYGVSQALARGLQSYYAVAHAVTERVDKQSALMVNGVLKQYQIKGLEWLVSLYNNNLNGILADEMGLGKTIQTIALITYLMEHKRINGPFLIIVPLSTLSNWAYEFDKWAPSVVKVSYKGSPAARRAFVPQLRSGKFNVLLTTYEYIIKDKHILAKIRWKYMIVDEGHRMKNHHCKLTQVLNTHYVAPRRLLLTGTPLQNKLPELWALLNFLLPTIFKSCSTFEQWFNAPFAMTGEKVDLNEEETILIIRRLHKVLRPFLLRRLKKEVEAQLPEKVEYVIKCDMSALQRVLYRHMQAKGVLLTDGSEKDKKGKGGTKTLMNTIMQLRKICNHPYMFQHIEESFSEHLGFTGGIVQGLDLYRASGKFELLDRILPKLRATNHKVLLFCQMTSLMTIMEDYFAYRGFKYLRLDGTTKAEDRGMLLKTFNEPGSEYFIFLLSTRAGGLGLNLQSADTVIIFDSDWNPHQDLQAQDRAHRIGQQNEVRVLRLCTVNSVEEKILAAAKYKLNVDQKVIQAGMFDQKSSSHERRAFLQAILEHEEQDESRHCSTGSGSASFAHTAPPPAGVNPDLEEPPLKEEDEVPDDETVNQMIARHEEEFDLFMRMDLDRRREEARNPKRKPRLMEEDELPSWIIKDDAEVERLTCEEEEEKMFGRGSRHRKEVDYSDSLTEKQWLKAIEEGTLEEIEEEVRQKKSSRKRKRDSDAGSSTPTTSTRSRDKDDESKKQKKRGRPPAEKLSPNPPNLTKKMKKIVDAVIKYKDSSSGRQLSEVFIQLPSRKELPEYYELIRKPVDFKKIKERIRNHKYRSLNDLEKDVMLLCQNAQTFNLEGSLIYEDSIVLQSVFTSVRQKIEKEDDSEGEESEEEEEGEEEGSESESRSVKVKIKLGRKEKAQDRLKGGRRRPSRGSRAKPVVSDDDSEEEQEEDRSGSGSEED
This section presents compounds with their documented Dmax at 0.001 µM values.
Metric: Dmax at 0.001 µM (%)

| Compound | Metric | Uom | Value Reported |
| --- | --- | --- | --- |
| Nc1nnc(-c2ccccc2O)cc1C#CC1CCC2(CC1)CC(N1CCC3(CCc4cc(F)c(C(=O)N[C@H]5CCC(=O)NC5=O)cc4O3)CC1)C2 (stereo partly drawn) | Dmax at 0.001 µM | % | 28 |
| Cn1c(=O)n(C2CCC(=O)NC2=O)c2ccc3c(c21)OCC31CCN(C(=O)[C@H]2CC[C@H](Cn3cc(-c4cc(-c5ccccc5O)nnc4N)cn3)CC2)CC1 (stereo partly drawn) | Dmax at 0.001 µM | % | 40 |
| Nc1nnc(-c2ccccc2O)cc1C#CC1CCC2(CC1)CC(N1CC3(CCc4cc(F)c(C(=O)N[C@H]5CCC(=O)NC5=O)cc4O3)C1)C2 (stereo partly drawn) | Dmax at 0.001 µM | % | -8 |

* * *

biological target: AR protein (Homo sapiens, UniProt P10275, T878A); construct: host or cells: LNCaP FGC; experiment: AR protein degradation in LNCaP cells (Western blot); format: cell-based; conditions: 10 nM, 8 hours
Sequence (P10275 whole entry T878A): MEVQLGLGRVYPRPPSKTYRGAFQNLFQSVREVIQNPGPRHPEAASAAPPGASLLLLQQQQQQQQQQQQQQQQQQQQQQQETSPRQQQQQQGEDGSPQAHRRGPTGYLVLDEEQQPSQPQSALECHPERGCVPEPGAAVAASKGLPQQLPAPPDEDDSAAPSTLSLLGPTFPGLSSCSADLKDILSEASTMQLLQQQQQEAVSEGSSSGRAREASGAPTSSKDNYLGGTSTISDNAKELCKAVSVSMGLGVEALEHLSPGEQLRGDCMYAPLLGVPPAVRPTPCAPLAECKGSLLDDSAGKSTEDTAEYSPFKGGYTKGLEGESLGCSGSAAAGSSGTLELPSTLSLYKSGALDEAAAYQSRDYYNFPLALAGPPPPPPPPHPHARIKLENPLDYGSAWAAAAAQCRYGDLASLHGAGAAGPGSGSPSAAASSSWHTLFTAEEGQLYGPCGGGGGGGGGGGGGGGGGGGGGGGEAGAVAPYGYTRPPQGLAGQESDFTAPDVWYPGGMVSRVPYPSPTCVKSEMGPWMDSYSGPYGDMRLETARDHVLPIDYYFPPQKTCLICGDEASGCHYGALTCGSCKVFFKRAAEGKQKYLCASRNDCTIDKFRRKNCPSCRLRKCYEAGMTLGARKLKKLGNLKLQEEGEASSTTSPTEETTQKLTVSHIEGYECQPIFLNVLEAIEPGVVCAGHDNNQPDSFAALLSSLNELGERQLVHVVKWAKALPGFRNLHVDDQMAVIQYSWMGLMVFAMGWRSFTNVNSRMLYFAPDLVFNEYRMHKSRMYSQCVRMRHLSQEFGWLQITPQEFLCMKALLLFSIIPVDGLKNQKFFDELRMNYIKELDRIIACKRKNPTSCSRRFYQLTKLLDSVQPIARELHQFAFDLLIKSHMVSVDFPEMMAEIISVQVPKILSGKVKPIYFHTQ
Please note: Degradation of AR protein in LNCaP cells, 10 nM (%) exactly at 40% is not satisfied. Only values below 40% get satisfied.

| Compound | Answer Label |
| --- | --- |
| COc1cc(O[C@H]2C(C)(C)[C@H](NC(=O)c3ccc(N4CCC(C)(CN5CCC6(CCc7cc(F)c(C(=O)N[C@H]8CCC(=O)NC8=O)cc7O6)CC5)CC4)cc3)C2(C)C)ccc1C#N | satisfied |
| N#Cc1ccc(O[C@H]2CC[C@H](NC(=O)c3ccc(N4CCC(N5CCC6(CC5)CCC5(CC6)COc6c5ccc5c6CN(C6CCC(=O)NC6=O)C5=O)CC4)nn3)CC2)cc1Cl (relative stereo) | not satisfied |
| COc1cc(O[C@H]2C(C)(C)[C@H](NC(=O)c3ccc(N4CCC(CN5CCN(c6ccc(C(=O)N[C@H]7CCC(=O)NC7=O)c(F)c6)CC5)CC4)cc3)C2(C)C)ccc1C#N [ARV-766, reference compound] | not satisfied |
| COc1cc(O[C@H]2C(C)(C)[C@H](NC(=O)c3ccc(N4CCC(C)(CN5CCC6(CCc7cc(C(=O)N[C@H]8CCC(=O)NC8=O)c(F)cc7O6)CC5)CC4)nn3)C2(C)C)ccc1C#N | not satisfied |
| CC1(C)[C@H](NC(=O)c2ccc(N3CCC(CN4CCN5c6ccc(C(=O)N[C@H]7CCC(=O)NC7=O)cc6OC[C@H]5C4)CC3)cc2)C(C)(C)[C@H]1Oc1ccc(C#N)c(Cl)c1 | satisfied |

* * *

target: ERα (Homo sapiens, UniProt P03372); experiment: ERα degradation in T-47D cells (Western blot); assay type: cell-based; settings: 10nM, 4 hours
Sequence (P03372 whole entry): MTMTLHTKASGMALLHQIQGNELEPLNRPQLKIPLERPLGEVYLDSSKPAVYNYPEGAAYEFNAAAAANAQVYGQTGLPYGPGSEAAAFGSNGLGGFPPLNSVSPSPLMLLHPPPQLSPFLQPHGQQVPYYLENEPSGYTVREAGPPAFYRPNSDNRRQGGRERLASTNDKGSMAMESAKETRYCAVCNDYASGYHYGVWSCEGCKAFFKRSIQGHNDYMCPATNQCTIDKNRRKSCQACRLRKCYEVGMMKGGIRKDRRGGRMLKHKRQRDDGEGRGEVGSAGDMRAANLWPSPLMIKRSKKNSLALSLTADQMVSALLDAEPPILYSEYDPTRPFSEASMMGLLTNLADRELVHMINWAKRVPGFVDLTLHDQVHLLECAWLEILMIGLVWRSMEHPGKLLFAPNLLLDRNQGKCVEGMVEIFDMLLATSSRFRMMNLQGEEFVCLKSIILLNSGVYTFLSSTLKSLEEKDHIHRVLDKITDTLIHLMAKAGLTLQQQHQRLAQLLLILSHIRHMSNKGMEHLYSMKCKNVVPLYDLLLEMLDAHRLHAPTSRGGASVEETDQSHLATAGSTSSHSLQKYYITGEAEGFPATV
Consider the following compounds and their measured Degradation rate of ERα in T-47D cells (%) readings.
Metric: Degradation rate of ERα in T-47D cells (%)

| Compound | Value Reported |
| --- | --- |
| C[C@@H]1Cc2cc(O)ccc2C(c2c(F)cc(N3CCC4(CCC(N5CCC6(CC5)COc5c6ccc6c5n(C)c(=O)n6C5CCC(=O)NC5=O)CC4)CC3)cc2F)N1CC(F)F (some centres unmarked) | 41 |
| Cn1c(=O)n(C2CCC(=O)NC2=O)c2cc3c(cc21)OC1(CC3)CCN(C[C@H]2CC[C@@H](OC3CCN(c4ccc([C@@H]5c6ccc(O)cc6CC[C@@H]5c5ccccc5)cc4)CC3)CC2)CC1 (some centres unmarked) | 77 |
| Cn1c(=O)n(C2CCC(=O)NC2=O)c2cc3c(cc21)C1(CCN(C2CC4(CCN(c5ccc([C@@H]6c7ccc(O)cc7CC[C@@H]6c6ccccc6)cc5)CC4)C2)CC1)CO3 (some centres unmarked) | 38 |
| O=C1CCC(N2Cc3c(ccc4c3OCC43CCC4(CC3)CN(C(=O)C3CCN(c5ccc([C@@H]6c7ccc(O)cc7CC[C@@H]6c6ccccc6)cc5)CC3)C4)C2=O)C(=O)N1 (some centres unmarked) | 54 |
| Cn1c(=O)n(C2CCC(=O)NC2=O)c2cc3c(cc21)C1(CCN(C(=O)C2CN(CC4CCN(c5ccc([C@@H]6c7ccc(O)cc7CC[C@@H]6c6ccccc6)cc5)CC4)C2)CC1)CO3 (some centres unmarked) | 70 |
